- System: NCI full panel of 60 cell lines
- measurementNotes: NCI 5-dose assay, full panel overview
- Assay type: cell-based, human
- conditionSummary: in words
observedProperty: cytotoxicity in NCI screen

COc1ccc(NC(=O)COc2ccccc2)c(C(N)=O)c1 [Compound 17r] ... low cytotoxicity
NC(=O)c1cc(Cl)ccc1NC(=O)COc1ccccc1 [Compound 17f, 5-Chloro-2-(2-phenoxyacetamido)benzamide] ... low cytotoxicity
COc1cc(NC(=O)COc2ccccc2)c(C(N)=O)cc1OC [Compound 17u] ... low cytotoxicity
NC(=O)c1cc(I)ccc1NC(=O)COc1ccccc1 [Compound 17j, 5-Iodo-2-(2-phenoxyacetamido)benzamide] ... low cytotoxicity

Values compiled from paper PMC4593655.
